assayed-target: Androgen receptor (Homo sapiens, UniProt P10275)
Sequence (P10275 whole entry): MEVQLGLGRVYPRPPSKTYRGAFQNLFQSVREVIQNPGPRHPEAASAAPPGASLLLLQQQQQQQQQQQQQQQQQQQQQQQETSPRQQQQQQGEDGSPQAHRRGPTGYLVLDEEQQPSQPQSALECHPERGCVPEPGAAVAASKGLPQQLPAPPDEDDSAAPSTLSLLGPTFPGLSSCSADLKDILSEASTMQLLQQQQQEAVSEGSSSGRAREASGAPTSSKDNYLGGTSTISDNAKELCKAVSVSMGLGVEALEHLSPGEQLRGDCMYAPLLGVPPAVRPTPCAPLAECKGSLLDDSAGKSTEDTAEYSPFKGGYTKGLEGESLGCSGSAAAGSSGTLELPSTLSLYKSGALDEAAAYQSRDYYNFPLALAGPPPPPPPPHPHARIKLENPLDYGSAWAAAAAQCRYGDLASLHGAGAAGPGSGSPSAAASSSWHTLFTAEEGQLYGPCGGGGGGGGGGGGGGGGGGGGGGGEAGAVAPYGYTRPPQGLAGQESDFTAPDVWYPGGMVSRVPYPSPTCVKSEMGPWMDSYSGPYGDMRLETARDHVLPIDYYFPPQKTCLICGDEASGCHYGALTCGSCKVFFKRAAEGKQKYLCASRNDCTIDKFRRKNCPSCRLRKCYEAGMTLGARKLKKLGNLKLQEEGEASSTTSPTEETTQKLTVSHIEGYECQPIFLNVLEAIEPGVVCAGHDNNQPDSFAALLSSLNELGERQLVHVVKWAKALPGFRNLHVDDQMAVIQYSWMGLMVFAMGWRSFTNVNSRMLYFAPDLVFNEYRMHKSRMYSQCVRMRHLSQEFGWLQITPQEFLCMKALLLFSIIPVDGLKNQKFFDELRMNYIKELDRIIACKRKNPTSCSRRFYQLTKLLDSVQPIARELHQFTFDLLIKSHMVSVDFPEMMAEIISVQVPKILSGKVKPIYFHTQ
assay-remarks: biochemical
Description: Displacement of [3H]DHT from human cloned androgen receptor expressed in Sf9 cells
parameter-measured: IC50 (nM)

# smiles-string, assayed-target, parameter-measured, meas-value
measured = [
    ("COc1cc(Sc2c(C)cc(C)cc2C)ccc1C#N", "Androgen receptor (Homo sapiens, UniProt P10275)", "IC50", 39),
    ("CCCSc1ccc(C#N)c(C(F)(F)F)c1", "Androgen receptor (Homo sapiens, UniProt P10275)", "IC50", 23),
    ("CCCSc1ccc(C#N)c(OC)c1", "Androgen receptor (Homo sapiens, UniProt P10275)", "IC50", 40),
    ("COc1cc(Sc2c(C)cccc2C)ccc1C#N", "Androgen receptor (Homo sapiens, UniProt P10275)", "IC50", 43),
    ("N#Cc1ccc(SCC2CCC2)cc1C(F)(F)F", "Androgen receptor (Homo sapiens, UniProt P10275)", "IC50", 63),
    ("COc1cc(Sc2ccccc2OC)ccc1C#N", "Androgen receptor (Homo sapiens, UniProt P10275)", "IC50", 20),
    ("COc1cc(C#N)ccc1Oc1ccc(C)cc1", "Androgen receptor (Homo sapiens, UniProt P10275)", "IC50", 5210),
]
